# STUDY_SYSTEM: mTRPV3 (Mus musculus)
# Sequence (Q8K424 1-791): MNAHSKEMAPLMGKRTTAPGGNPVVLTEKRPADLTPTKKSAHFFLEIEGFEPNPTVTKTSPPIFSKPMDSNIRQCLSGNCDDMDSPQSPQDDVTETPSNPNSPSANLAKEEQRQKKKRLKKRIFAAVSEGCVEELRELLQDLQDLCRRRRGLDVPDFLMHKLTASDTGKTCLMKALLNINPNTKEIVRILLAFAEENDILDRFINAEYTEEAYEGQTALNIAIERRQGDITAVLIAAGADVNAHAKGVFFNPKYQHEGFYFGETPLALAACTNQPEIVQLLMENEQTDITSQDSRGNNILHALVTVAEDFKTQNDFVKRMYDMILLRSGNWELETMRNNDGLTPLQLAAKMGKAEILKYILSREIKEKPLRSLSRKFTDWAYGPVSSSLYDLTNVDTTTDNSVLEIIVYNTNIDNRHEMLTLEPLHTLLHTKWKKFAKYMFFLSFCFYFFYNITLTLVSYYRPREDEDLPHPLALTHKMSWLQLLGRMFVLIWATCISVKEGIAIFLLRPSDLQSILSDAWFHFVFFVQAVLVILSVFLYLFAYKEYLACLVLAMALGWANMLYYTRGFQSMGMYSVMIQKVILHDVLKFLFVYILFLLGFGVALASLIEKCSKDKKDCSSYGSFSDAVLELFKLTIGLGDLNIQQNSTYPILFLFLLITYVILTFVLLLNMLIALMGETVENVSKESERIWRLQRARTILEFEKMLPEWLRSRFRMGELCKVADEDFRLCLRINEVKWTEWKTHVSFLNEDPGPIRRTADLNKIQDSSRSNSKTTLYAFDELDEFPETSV
# ASSAY_NOTES: Whole-cell patch clamp of 2-APB induced current in mTRPV3-HEK-293 cells
# STATED_CONDITIONS: whole-cell patch clamp, mTRPV3-HEK-293, 2-APB 100 μM, nonlinear fitting
METRIC_NAME: pIC50
Scale: negative log10 of molar concentration, which is what pIC50 denotes.

Value of measured pIC50 for the entry O=c1cc(-c2ccc(O)cc2)oc2cc(O)c(O)c(O)c12 : 6.00
